These data points were gathered from ChEMBL document CHEMBL1121527.

test system: Rattus norvegicus; experiment: Tested for maximum fall in mean arterial pressure in Spontaneously hypertensive rats after peroral administration by using 1% methyl cellulose as vehicle at 5 mg/kg; assay type: functional; conditions: route oral
Doc: threshold 30 mmHg (exclusive). Items with MAP beneath it return TRUE; others return FALSE.

Examples with answers:
INSERT INTO measurements (molecule, grouplabel) VALUES
  ('CC(C)(C)NCC(O)COc1ccsn1 (centres undefined)', 'TRUE'),
  ('Cc1sc(-c2ccncc2)nc1OC[C@@H](O)CNC(C)(C)C', 'TRUE'),
  ('CC(C)(C)NCC(O)COc1nsnc1C#N (centres undefined)', 'TRUE');

Task item: I wonder whether CC(C)(C)NCC(O)COc1ncsc1C#N (centres undefined) has MAP below 30 mmHg. Can you tell?
Reply: FALSE

Task item: Given the entry CC(C)(C)NCC(O)COc1nc2ncccc2cc1C#N (centres undefined) , would its reported MAP be below 30 mmHg?
Reply: TRUE

Task item: For CC(C)(C)NCC(O)COc1nscc1Br (centres undefined) , is the recorded MAP below the cut-off of 30 mmHg?
Reply: FALSE

Task item: Quick check: MAP of CC(C)NCC(O)COc1cccc2ccccc12 (centres undefined) [PROPRANOLOL] under 30 mmHg?
Reply: TRUE

Task item: Does this molecule meet the criterion MAP < 30 mmHg? `CC(C)(C)NC[C@H](O)COc1nc(-c2ccccc2)sc1C#N`
Reply: TRUE
